Hey, just so you know, these numbers are from PubChem BioAssay AID485270.

List of inhibition values.
Molecular target: Orexin/Hypocretin receptor type 1 (Homo sapiens) (UniProt O43613)
Sequence (O43613 whole entry, looked up): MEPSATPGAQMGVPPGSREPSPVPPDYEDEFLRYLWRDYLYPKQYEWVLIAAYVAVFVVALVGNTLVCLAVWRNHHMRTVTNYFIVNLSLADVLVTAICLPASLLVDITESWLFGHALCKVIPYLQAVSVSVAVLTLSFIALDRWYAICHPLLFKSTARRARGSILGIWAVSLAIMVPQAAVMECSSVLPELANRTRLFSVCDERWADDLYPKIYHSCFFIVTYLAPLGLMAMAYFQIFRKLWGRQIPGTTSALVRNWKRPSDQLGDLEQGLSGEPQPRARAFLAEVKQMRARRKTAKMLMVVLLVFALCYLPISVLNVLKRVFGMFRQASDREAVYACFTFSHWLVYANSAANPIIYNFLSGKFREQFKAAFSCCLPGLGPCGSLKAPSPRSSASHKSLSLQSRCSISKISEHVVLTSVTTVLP
Assay: antagonists of human orexin 1 receptor (OX1R) (AID 485270);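 further: 0% = agonist challenge alone and 100% = reference antagonist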
Conditions: OX1R-expressing cells, FRET antagonist read-out; at 6.6 µM; stronger effect = higher value
Among all 330,000 compounds or so, about 5,800 (1.8%) were called active. For the sample, actives were picked, then their nearest neighbours and some compounds at random.

# example entries with known answers
>  <COMPOUND>
COC(=O)N/N=C/c1c[n+]([O-])c2ccccc2[n+]1[O-]

>  <SYSTEM_UNDER_TEST>
Orexin/Hypocretin receptor type 1 (Homo sapiens) (UniProt O43613)

>  <inhibition>
101% (active)

$$$$
>  <COMPOUND>
C=CCC[C@H](Cc1ccc(F)cc1)C(=O)OC[C@H](C)NC(=O)[C@H](CC=C)CC(=O)N(CCO)Cc1ccccc1

>  <SYSTEM_UNDER_TEST>
Orexin/Hypocretin receptor type 1 (Homo sapiens) (UniProt O43613)

>  <inhibition>
17.6% (inactive)

$$$$
>  <COMPOUND>
Cc1cccc(-c2nc3ccc(C(=O)NCCN4CCN(C)CC4)cc3nc2-c2cccc(C)c2)c1

>  <SYSTEM_UNDER_TEST>
Orexin/Hypocretin receptor type 1 (Homo sapiens) (UniProt O43613)

>  <inhibition>
17.7% (inactive)

$$$$
>  <COMPOUND>
O=C(COC(=O)CN1C(=O)C2CCCCC2C1=O)Nc1ccc(F)c(F)c1F (stereo not drawn)

>  <SYSTEM_UNDER_TEST>
Orexin/Hypocretin receptor type 1 (Homo sapiens) (UniProt O43613)

>  <inhibition>
0.98% (inactive)

$$$$
>  <COMPOUND>
O=C(Nc1ccccc1Cl)/C(Cl)=C(\Cl)S(=O)c1ccccc1 (stereo not drawn)

>  <SYSTEM_UNDER_TEST>
Orexin/Hypocretin receptor type 1 (Homo sapiens) (UniProt O43613)

>  <inhibition>
87.9% (active)

$$$$

### Prompt Which inhibition value belongs to Cn1nnc2cc(C(=O)NCCC3=CCCCC3)ccc21 ?
### Response 20.7% (inactive)

### Prompt Which inhibition is reported for this compound? COc1ccc(CCn2c(NCCCN3CCOCC3)nc3c2c(=O)[nH]c(=O)n3C)cc1
### Response 101% (active)

### Prompt What value of measured inhibition is listed for COc1ccc(/C=C/C(=O)Nc2ccc(C34CC5CC(CC(O)(C5)C3)C4)cc2)cc1OC ?
### Response 18.9% (inactive)

---

Listing of entries alongside the reported inhibition.
Molecular target: Orexin/Hypocretin receptor type 1 (Homo sapiens)
Experiment: antagonists of human orexin 1 receptor (OX1R) (AID 485270);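 further: 0% = agonist challenge alone and 100% = reference antagonist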
Conditions: OX1R-expressing cells, FRET antagonist read-out; at 6.6 µM; stronger effect = higher value
The campaign covered roughly 330,000 compounds. About 5,800 (1.8%) were called active. This excerpt belongs to a sample that is enriched for actives.

>  <COMPOUND>
Cc1cccc(OCC(=O)OCC(=O)Nc2ccc(Cl)cn2)c1

>  <SYSTEM_UNDER_TEST>
Orexin/Hypocretin receptor type 1 (Homo sapiens)

>  <inhibition>
4.09% (inactive)

$$$$
>  <COMPOUND>
CC(C)n1ncc2c(C(=O)Nc3ccc(CC#N)cc3)cc(C3CC3)nc21

>  <SYSTEM_UNDER_TEST>
Orexin/Hypocretin receptor type 1 (Homo sapiens)

>  <inhibition>
4.43% (inactive)

$$$$

### Prompt Please look up its inhibition: CC1CCCCC1NC(=O)COc1ccc(C#N)cc1 (stereo unspecified)
### Response 1.71% (inactive)
